self-cleavage values for the variants below.
B1: HDV Ribozyme (parent)
chain: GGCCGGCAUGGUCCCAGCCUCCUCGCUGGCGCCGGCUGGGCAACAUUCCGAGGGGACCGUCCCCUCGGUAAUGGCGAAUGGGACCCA

variants of: B1; assay: self-cleavage, relative activity (ratio to wild type); higher = more cleavage; co-transcriptional
metric: self-cleavage

[[record]]
querysequence = "GGCCAUCAUGGUCCCAGCCUCCUCGCUGGCGCCGGCUGGGCAACAUUCCGAGGGGACCGUCCCCUCGGUAAUGGCGAAUGGGACCCA [G5A G6U]"
metric = "self-cleavage"
numericreadout = 0.0923

[[record]]
querysequence = "GGCCGGCAUGGUCCCAGCCUCCUCGCUGGCGCCGGCUUGGCAACAUUCCGAGGGGACCGUCCCCUUGGUAAUGGCGAAUGGGACCCA [G38U C66U]"
metric = "self-cleavage"
numericreadout = 0.175

[[record]]
querysequence = "GGCCGGCAUGGUCCCAGCCUCCUCGCUGCCGCCGGCUGGGCAACACUCCGAGGGGACCGUCCCCUCGGUAAUGGCGAAUGGGACCCA [G29C U46C]"
metric = "self-cleavage"
numericreadout = 0.0755

[[record]]
querysequence = "GGCCGGCAUGGUCCCAGCCUCCUCGCUGGCGCCGGCUGGGCAACAUUCCGAGGGGAGCGUCCCCUCGGUAAUGACGAAUGGGACCCA [C57G G74A]"
metric = "self-cleavage"
numericreadout = 0.277

[[record]]
querysequence = "GGCCGGCAUGGUCCCAGCCUCCUCGCUGGCGCCGGCUGGGCAACAUACCGAGGGGACCGUCCCCUCGGUCAUGGCGAAUGGGACCCA [U47A A70C]"
metric = "self-cleavage"
numericreadout = 0.957

[[record]]
querysequence = "GGCCGCCAUGGUCCCAGCCUCCUCGCUGGCGCCGGCUGGGCAACAUUCCAAGGGGACCGUCCCCUCGGUAAUGGCGAAUGGGACCCA [G6C G50A]"
metric = "self-cleavage"
numericreadout = 0.225

[[record]]
querysequence = "UGCCGGCAUGGUCCCAGCCUCCCCGCUGGCGCCGGCUGGGCAACAUUCCGAGGGGACCGUCCCCUCGGUAAUGGCGAAUGGGACCCA [G1U U23C]"
metric = "self-cleavage"
numericreadout = 0.665

[[record]]
querysequence = "GGCCGGCAUGGUCCCAGCCUCCUCGUUGGCGCCGGCUGGGCAACAUUCCGAGGGGACCGUCCCCUCGGUAAUGGCGAAUGGAACCCA [C26U G82A]"
metric = "self-cleavage"
numericreadout = 0.769

[[record]]
querysequence = "GGCCGGCAUGCUCCCAGCCUCCUCGCUGGCGCCGGCUGGGCAACAUUCCGAGGGGACCGUCCCCUCGGUAAUGGCGAAUGGGUCCCA [G11C A83U]"
metric = "self-cleavage"
numericreadout = 0.119

[[record]]
querysequence = "GGCCGGCAUGGUGCCAGCCUCCUCGCUGGCGCCGGCUGGGCAACAUUCCGAGGGGACCGUCCCCUCGGUAAUCGCGAAUGGGACCCA [C13G G73C]"
metric = "self-cleavage"
numericreadout = 0.0396

[[record]]
querysequence = "GGCCGGCAUGGUCCCAGCCUCCUCGCUGGCGCCGGCUGGGCGACAUUCCGAGGGGACCGUCCCCUCGGUAAUUGCGAAUGGGACCCA [A42G G73U]"
metric = "self-cleavage"
numericreadout = 0.147

[[record]]
querysequence = "GGCCGGCAUGGUCCCAGCCUCCUCGCUUGCGCCGGCUGGGCAAGAUUCCGAGGGGACCGUCCCCUCGGUAAUGGCGAAUGGGACCCA [G28U C44G]"
metric = "self-cleavage"
numericreadout = 0.111

[[record]]
querysequence = "GGCUGGCAUGCUCCCAGCCUCCUCGCUGGCGCCGGCUGGGCAACAUUCCGAGGGGACCGUCCCCUCGGUAAUGGCGAAUGGGACCCA [C4U G11C]"
metric = "self-cleavage"
numericreadout = 0

[[record]]
querysequence = "GGCCGGCAUGGUCCCAGCCUCCUCGCUGGCGCCGGCUGGGCAACAUUCCGAGGGGACCGUCCCCUCGGUAACUGCGAAUGGGACCCA [U72C G73U]"
metric = "self-cleavage"
numericreadout = 0.272

[[record]]
querysequence = "GGCCGGCAUGGUCCCAGCCUUCUCGCUGGCGCCGGCUGGGCAACAUUCCGAGGGGACCGUCCCCUCGGUAAUGGCGAAUGGGACCCG [C21U A87G]"
metric = "self-cleavage"
numericreadout = 0.165

[[record]]
querysequence = "GGCCGGCAUGGUCCCAGCCUCCUCGCUGGCGCCGGCUGGGCAACAUUCCGUGGGGACCGUCCCCUCGGUAAUGGUGAAUGGGACCCA [A51U C75U]"
metric = "self-cleavage"
numericreadout = 0.177

[[record]]
querysequence = "UGCCGGCAUGGUCCCAGCCUUCUCGCUGGCGCCGGCUGGGCAACAUUCCGAGGGGACCGUCCCCUCGGUAAUGGCGAAUGGGACCCA [G1U C21U]"
metric = "self-cleavage"
numericreadout = 0.348

[[record]]
querysequence = "GGCCGGCAUGGUCCUAGCCUCCCCGCUGGCGCCGGCUGGGCAACAUUCCGAGGGGACCGUCCCCUCGGUAAUGGCGAAUGGGACCCA [C15U U23C]"
metric = "self-cleavage"
numericreadout = 1.11

[[record]]
querysequence = "GGCCGGCAUGGUCCCAGCCUCCUCGCUGGCGCCGGCUGGGCAACAUUCUAAGGGGACCGUCCCCUCGGUAAUGGCGAAUGGGACCCA [C49U G50A]"
metric = "self-cleavage"
numericreadout = 1.05

[[record]]
querysequence = "GGCCGGCAUGGUCCCAGCCUCCUCGCUGGCGCCGGCUGGGCAACUUUCCGAGGGGACCGUCCCCUCGGUAAUGGCGAAUGGGACCAA [A45U C86A]"
metric = "self-cleavage"
numericreadout = 0.77

[[record]]
querysequence = "GGGCGGCAUGGUCCCAGCCUCCUCGCUGGCGCCGGCUGGGCAACAUUCCGAGGGGACCGUCCCCUCGGAAAUGGCGAAUGGGACCCA [C3G U69A]"
metric = "self-cleavage"
numericreadout = 0.582

[[record]]
querysequence = "GGCCGGCAUGGUCCCGGCCUCCUCGCUGGCGCCGGCUGGGCAACAUUCCGAGGGGACCGUCCCCUCGGUAAUGGCGAGUGGGACCCA [A16G A78G]"
metric = "self-cleavage"
numericreadout = 0.465

[[record]]
querysequence = "GGCCGGCAUGGUCCCAGCCUCCUCGCUGGCGCCGGCUGGUCAACAUUCCGAGGGGACCGUCCCCUCGGUAAUGGCGAAAGGGACCCA [G40U U79A]"
metric = "self-cleavage"
numericreadout = 0.262

[[record]]
querysequence = "GGCCGGCAUGGUCGCAGCCUCCUCGCUGGCGCCGGCUGGGCAACAUUCCGAGGGGACCGUCCCCUCGGUAAUGGCGACUGGGACCCA [C14G A78C]"
metric = "self-cleavage"
numericreadout = 0.108

[[record]]
querysequence = "GGCCGGCAUCGUCCCAGCCUCCUCGCUGGCGCCGGGUGGGCAACAUUCCGAGGGGACCGUCCCCUCGGUAAUGGCGAAUGGGACCCA [G10C C36G]"
metric = "self-cleavage"
numericreadout = 0.0831

[[record]]
querysequence = "GGCCGGCAUGGUCCCAGCCUCCUCGCGGGCGCCGGCUGGGCAACAUUCCGAGGGGACCGUCCCGUCGGUAAUGGCGAAUGGGACCCA [U27G C64G]"
metric = "self-cleavage"
numericreadout = 0.87

[[record]]
querysequence = "GGCCGGCAUGGUCCCAGCAUCCUCGCUGGCGCCGGCUGGGUAACAUUCCGAGGGGACCGUCCCCUCGGUAAUGGCGAAUGGGACCCA [C19A C41U]"
metric = "self-cleavage"
numericreadout = 0.0382

[[record]]
querysequence = "GGCCGGGAUGGUCCCAGCCUCCUCGCUGGCGCCGGCUGGGGAACAUUCCGAGGGGACCGUCCCCUCGGUAAUGGCGAAUGGGACCCA [C7G C41G]"
metric = "self-cleavage"
numericreadout = 0.128

[[record]]
querysequence = "GGCCGGCAUGGUCCCAGCCUCCUCGCUGGCACCGGCUGGGCAACAUUCCGAGGGGACCGUCGCCUCGGUAAUGGCGAAUGGGACCCA [G31A C62G]"
metric = "self-cleavage"
numericreadout = 0.317

[[record]]
querysequence = "GGCCGGCAUGGUCCCAGCCUCCUCGCUGGCGCCGGCUGGGCAACAUUCCGAGGGGACCGUCCCCUCGGUAAUGGCGAAUCGUACCCA [G80C G82U]"
metric = "self-cleavage"
numericreadout = 0.0782

[[record]]
querysequence = "GGGGGGCAUGGUCCCAGCCUCCUCGCUGGCGCCGGCUGGGCAACAUUCCGAGGGGACCGUCCCCUCGGUAAUGGCGAAUGGGACCCA [C3G C4G]"
metric = "self-cleavage"
numericreadout = 1

[[record]]
querysequence = "GGCCGGCAUGGUCCCAGCCUCCUCGCUGGCGCCGGCUGGGCCACAUUCCCAGGGGACCGUCCCCUCGGUAAUGGCGAAUGGGACCCA [A42C G50C]"
metric = "self-cleavage"
numericreadout = 0.375

[[record]]
querysequence = "GGCCGGCAUGGUCCCAGCCUCCUCGCUGGCGCCGCCUGGGCAACAUUCCGAGGGGACCGUCCCCUCGGUAAUGGCGAAUGGGACCCG [G35C A87G]"
metric = "self-cleavage"
numericreadout = 0.205

[[record]]
querysequence = "GGCCGGCAUGGUCCCUGCCUCCUCGCUGGCGCCGUCUGGGCAACAUUCCGAGGGGACCGUCCCCUCGGUAAUGGCGAAUGGGACCCA [A16U G35U]"
metric = "self-cleavage"
numericreadout = 0.208

[[record]]
querysequence = "GGCCGGCAUGGUCCCAGCCACCUCGCUGGCGCCGGCUGGGCAACAUUCCGAGGGGACCGUCCCCUCGGUAUUGGCGAAUGGGACCCA [U20A A71U]"
metric = "self-cleavage"
numericreadout = 0.0504

[[record]]
querysequence = "GGCCGGCAUGGUCCCAGCCUCCUCGCUGGCGCCGGCUGGGCAACAUUCCGAGCGGACCGUCCCCUCGGUUAUGGCGAAUGGGACCCA [G53C A70U]"
metric = "self-cleavage"
numericreadout = 0.988

[[record]]
querysequence = "GGCCGGCAUGGUCCCAGACUCCUCGCUGGCGCCGGCUGGGCAACAUUCCGAGGGGACCGUCCCCUCGGUAAUGACGAAUGGGACCCA [C18A G74A]"
metric = "self-cleavage"
numericreadout = 0.0674

[[record]]
querysequence = "GGCCGGCAUGGUCCCAGCCUCCUCGCUGGCGCCGGCUGGGCAAGGUUCCGAGGGGACCGUCCCCUCGGUAAUGGCGAAUGGGACCCA [C44G A45G]"
metric = "self-cleavage"
numericreadout = 0.503

[[record]]
querysequence = "GGCCGGCAUGGUCCCAGCCUCCUCGCUGGCGCCGGCUGGGCAACAUUCCGAGGGGACCGACCCCUCGGUACUGGCGAAUGGGACCCA [U60A A71C]"
metric = "self-cleavage"
numericreadout = 0.73

[[record]]
querysequence = "GGCCGGCAUGGUCCCAGCCUCCUCGCUGGCGCCGGCUGGGCAACAGUCCGAGGGGACCGUCCCCUCGGUAAUGGCGAAUGGGACACA [U46G C85A]"
metric = "self-cleavage"
numericreadout = 0.831

[[record]]
querysequence = "GGCCGGCAUGGUCCCAGCCUCCUCGCUGGCGCCGGCUGGGCAACAUUCCGAGGGGACCGUCCCCUCGGUAAUCGCGAAUGGGACCCA [G73C]"
metric = "self-cleavage"
numericreadout = 0.505

[[record]]
querysequence = "GGCCGGCAUGGUCCCAGCCUCGUCGCUGGCGCCGGCUGGGCAACAUUCCGAGAGGACCGUCCCCUCGGUAAUGGCGAAUGGGACCCA [C22G G53A]"
metric = "self-cleavage"
numericreadout = 0.0779

[[record]]
querysequence = "GGCCUGCAUGGUCCCAGCCUCCUCGCUGGCGCCGGCUGGGCAACAUUCCGAGGGGACCGUCCCCUCGGUAAUGGCGAAUGGGCCCCA [G5U A83C]"
metric = "self-cleavage"
numericreadout = 0

[[record]]
querysequence = "GGCCGGCAUGGUCCCAGCCUCCUCGCUGGCGCCGGCUGGGGAACAUUCCGAGGGGACCGUCCCCUCGGUAAUGUCGAAUGGGACCCA [C41G G74U]"
metric = "self-cleavage"
numericreadout = 0.47

[[record]]
querysequence = "GGCCGGCAUGGUCCCAGCCUCCUCGCUGGCGCCUGCUGGGCAACAUUCGGAGGGGACCGUCCCCUCGGUAAUGGCGAAUGGGACCCA [G34U C49G]"
metric = "self-cleavage"
numericreadout = 0.166

[[record]]
querysequence = "GGCCGGCAUGGUCCGAGCCUCCUCGCUGGCGCCGGCUGGGCAACCUUCCGAGGGGACCGUCCCCUCGGUAAUGGCGAAUGGGACCCA [C15G A45C]"
metric = "self-cleavage"
numericreadout = 0.217

